# % activity at 3 μM per record follows
test-target: IC-GPCR2 (Homo sapiens, UniProt Q8TDV5)
Construct: expressed in transfected cells
Sequence (Q8TDV5 whole entry S309L): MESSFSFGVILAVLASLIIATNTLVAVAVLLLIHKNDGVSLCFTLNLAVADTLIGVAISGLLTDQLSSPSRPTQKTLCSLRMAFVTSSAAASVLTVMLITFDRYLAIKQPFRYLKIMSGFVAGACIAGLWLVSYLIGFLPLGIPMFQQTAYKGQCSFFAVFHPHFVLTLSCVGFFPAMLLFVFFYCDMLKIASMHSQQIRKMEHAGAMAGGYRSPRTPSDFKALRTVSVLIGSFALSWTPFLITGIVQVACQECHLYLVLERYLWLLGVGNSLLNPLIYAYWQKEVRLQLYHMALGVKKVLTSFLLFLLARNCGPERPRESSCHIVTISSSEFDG
assay-overview: Stimulation of cAMP in CHO cell line stably expressing IC-GPCR2 (HTRF cAMP dynamic kit)
Format: cell-based
condition-description: 3 μM compound; relative to maximal activity of 5-Ethyl-2-{4-[4-(4-tetrazol-1-yl-phenoxymethyl)-thiazol-2-yl]-piperidin-1-yl}-pyrimidine (=100%); IC-GPCR2 stably expressing CHO cells, 30 minutes
Structures can show the parent of a compound that is named as a salt.
reported-property: % activity at 3 μM (%)

• Fc1cc(-n2cnnn2)ccc1OCc1cnn(C2CCN(c3ncc(C(F)(F)F)cn3)CC2)n1 = 75.63
• Cc1ncccc1OCc1cnn(C2CCN(c3ncc(C(F)(F)F)cn3)CC2)n1 = 83.24
• CC(C)(C)OC(=O)N1CCC(CC(=O)N2CCC(n3ncc(COc4ccc(-n5cnnn5)nc4)n3)CC2)CC1 = 49.51
• CC(C)(C)OC(=O)N1CC[C@@H](n2ncc(COc3ccc(-n4cnnn4)cc3F)n2)[C@H](F)C1 (relative stereo) = 78.48
• CCc1cnc(N2CCC(n3cnc(COc4ccc(S(C)(=O)=O)cc4F)n3)CC2)nc1 = 65.75
• C[C@H](N)C(=O)N1CCC(n2ncc(COc3ccc(-n4cnnn4)nc3)n2)CC1 [Example 55, hydrochloride] = 31.89
• CCc1cnc(N2CCC(n3ncc(COc4ccc(-n5cnnn5)cc4F)c3C(F)(F)F)CC2)nc1 = 74.11

---

test-target: IC-GPCR2 (Homo sapiens, UniProt Q8TDV5)
Construct: expressed in transfected cells
assay-overview: Stimulation of cAMP in CHO cell line stably expressing IC-GPCR2 (HTRF cAMP dynamic kit)
Format: cell-based
condition-description: 3 μM compound; relative to maximal activity of 5-Ethyl-2-{4-[4-(4-tetrazol-1-yl-phenoxymethyl)-thiazol-2-yl]-piperidin-1-yl}-pyrimidine (=100%); IC-GPCR2 stably expressing CHO cells, 30 minutes
reported-property: % activity at 3 μM (%)

* FC(F)(F)c1ccc(N2CCC(n3ncc(COc4ccc(-n5cnnn5)nc4)n3)CC2)nc1 | 64.90
* CCc1cnc(N2CCC(n3cc(COc4ccc(S(C)(=O)=O)cc4F)c(C(F)(F)F)n3)CC2)nc1 | 57.87
* Fc1cc(-n2cnnn2)ccc1OCc1cnn([C@H]2CCN(c3ncc(Cl)cn3)C[C@@H]2F)n1 (racemic) | 88.32
* CS(=O)(=O)c1ccc(OCc2cnn(C3CCN(c4ncc(Cl)cn4)CC3)n2)c(F)c1 | 61.30

---

test-target: IC-GPCR2 (Homo sapiens)
Construct: expressed in transfected cells
assay-overview: Stimulation of cAMP in CHO cell line stably expressing IC-GPCR2 (HTRF cAMP dynamic kit)
Assay type: cell-based
condition-description: 3 μM compound; relative to maximal activity of 5-Ethyl-2-{4-[4-(4-tetrazol-1-yl-phenoxymethyl)-thiazol-2-yl]-piperidin-1-yl}-pyrimidine (=100%); IC-GPCR2 stably expressing CHO cells, 30 minutes
Protocol: This assay was developed using a stable cell line expressing IC-GPCR-2, generated as follows. […] To measure cAMP activity in response to IC-GPCR2 agonist, the clones were plated in 96 well plates at 17500 cells per well. On the day after plating, cells were incubated with the IC-CPCR2 agonist at […] for 30 minutes in Ham's F12 Media (Gibco) with 0.04% DMSO. cAMP was measured using the cAMP dynamic kit from C is Bio (Bedford, Mass.) according to the manufacturers instructions. […]
reported-property: % activity at 3 μM

* CCCCCc1cnc(N2CCC(n3ncc(COc4ccc(-n5cnnn5)nc4)n3)CC2)nc1 | 57.13%
* O=S(=O)(c1c[nH]cn1)N1CCC(n2ncc(COc3ccc(-n4cnnn4)nc3)n2)CC1 | 7.10%
* CS(=O)(=O)c1ccc(OCc2cnn(C3CCN(C(=O)OCc4ccccc4)CC3)n2)c(F)c1 | 28.40%
* Fc1cc(-n2cnnn2)ccc1OCc1cnn([C@H]2CCN(c3ncc(C(F)(F)F)cn3)C[C@@H]2F)n1 (racemic) | 87.61%
